# Lookup of reported pKd keyed by entry
# Experimental System: T1, recombinant CD3D&E protein (human CD3-his tag) (human, UniProt P04234 22-105; P07766 23-126, limits assumed)
# T1 construct: Analyte in Biacore; also called CD3D&E-His; CD3d&ε-His
# T1 sequence (P04234 22-105 limits assumed, chain 1 of 2): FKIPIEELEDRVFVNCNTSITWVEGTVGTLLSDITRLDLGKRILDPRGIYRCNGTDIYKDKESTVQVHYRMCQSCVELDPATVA
# T1 sequence (P07766 23-126 limits assumed, chain 2 of 2): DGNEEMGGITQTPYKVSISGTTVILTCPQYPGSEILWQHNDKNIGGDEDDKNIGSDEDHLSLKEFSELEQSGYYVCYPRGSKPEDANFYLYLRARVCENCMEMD
# Assay Name: SPR Biacore, Ab captured on Protein A;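 further: humanized antibodies on a Protein A chip, human CD3-his analyte flowed over in serial dilutions for 3 min, dissociation tracked 120–360 s on a Biacore T200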
pKd: −log10 of the molar value.

Binder	pKd
Hu155A9B1-10 (antibody, V domains shown, humanized mAb) VH: EVQLQESGPGLVKPSETLSLTCTVSGGSISSYNVHWVRQPPGKGLEWMGRVRYNGDTSYNSALKSRLTISRDTSKNQFSLKLSSVTAADTAVYYCTRGPYGGSSEPLFDYWGQGTMVTVSS VL: DIQMTQSPSSLSASVGDRVTITCKASQNINKYLNWFQQKPGKAPRLLIYTTNNLQTGIPSRFSGSGSGTDFTLTISSLQPEDFATYYCLQHNSGYTFGQGTKLEIK	7.09
Hu192A7B9-5 (antibody, V domains shown, humanized mAb) VH: EVQLQESGPGLVKPSETLSLTCTVSGFSISSYNVHWVRQPPGKGLEWMGRMRYNGDTSYNSALKSRLTISRDTSKNQVSLKLSSVTAADTAVYYCTRGPRGGYYSALFDYWGQGTMVTVSS VL: DIQMTQSPSSLSASVGDRVTITCKASQNINRYLNWYQQKPGKAPKLLIYIANSLQTGVPSRFSGSGSGTDFTLTISSLQPEDFATYYCLQHNSWYTFGQGTKLEIK	6.99
Hu192A7B9-11 (antibody, V domains shown, humanized mAb) VH: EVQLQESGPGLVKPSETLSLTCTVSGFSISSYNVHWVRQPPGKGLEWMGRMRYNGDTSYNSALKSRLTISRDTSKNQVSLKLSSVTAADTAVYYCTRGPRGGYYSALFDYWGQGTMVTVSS VL: DIQMTQSPSSLSASVGDRVTITCKASQNINRYLNWYQQKPGKAPKLLISIANSLQTGVPSRFSGSGSGTDFTLTISSLQPEDFATYYCLQHNSWYTFGQGTKLEIK	7.11
Hu192A7B9-23 (antibody, V domains shown, humanized mAb) VH: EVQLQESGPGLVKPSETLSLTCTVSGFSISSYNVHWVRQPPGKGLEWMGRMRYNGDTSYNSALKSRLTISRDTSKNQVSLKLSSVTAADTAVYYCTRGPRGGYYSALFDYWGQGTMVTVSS VL: DIQMTQSPSSLSASVGDRVTITCKASQNINRYLNWYQQKPGKAPKVLISIANSLQTGIPSRFSGSGSGTDFTLTISSLQPEDFATYFCLQHNSWYTFGQGTKLEIK	7.91
Hu155A9B1-6 (antibody, V domains shown, humanized mAb) VH: EVQLQESGPGLVKPSETLSLTCTVSGFSLTSYNVHWVRQPPGKGLEWMGRVRYNGDTSYNSALKSRLTISRDTSKNQASLKLSSVTAADTAVYYCTRGPYGGSSEPLFDYWGQGTMVTVSS VL: DIQMTQSPSSLSASVGDRVTITCKASQNINKYLNWYQQKPGKAPRLLIYTTNNLQTGVPSRFSGSGSGTDFTLTISSLQPEDFATYYCLQHNSGYTFGQGTKLEIK	7.21
Hu153A6B1-15 (antibody, V domains shown, humanized mAb) VH: EVQLQESGPGLVKPSETLSLTCTVSGGSISSYNIHWVRQPPGKGLEWMGRIRYNGDTSYNSALKSRLTISRDTSKNQFSLKLSSVTAADTAVYYCARGPYGGSREPLFDYWGQGTMVTVSS VL: DIQMTQSPSSLSASVGDRVTITCKTSQNINKYLNWFQQKPGKAPKLLIYTTNNLQTGIPSRFSGSGSGTDFTLTISSLQPEDFATYFCLQHGSGYTFGQGTKLEIK	7.12
Hu155A9B1-13 (antibody, V domains shown, humanized mAb) VH: EVQLQESGPGLVKPSETLSLTCTVSGGSISSYNVHWIRQPPGKGLEWIGRVRYNGDTSYNSALKSRVTISVDTSKNQFSLKLSSVTAADTAVYYCARGPYGGSSEPLFDYWGQGTMVTVSS VL: DIQMTQSPSSLSASVGDRVTITCKASQNINKYLNWFQQKPGKAPRLLIYTTNNLQTGIPSRFSGSGSGTDFTLTISSLQPEDFATYFCLQHNSGYTFGQGTKLEIK	7.90
Hu153A6B1-5 (antibody, V domains shown, humanized mAb) VH: EVQLQESGPGLVKPSETLSLTCTVSGFSISSYNIHWVRQPPGKGLEWMGRIRYNGDTSYNSALKSRLTISRDTSKNQVSLKLSSVTAADTAVYYCTRGPYGGSREPLFDYWGQGTMVTVSS VL: DIQMTQSPSSLSASVGDRVTITCKTSQNINKYLNWYQQKPGKAPKLLIYTTNNLQTGVPSRFSGSGSGTDFTLTISSLQPEDFATYYCLQHGSGYTFGQGTKLEIK	7.71
Hu153A6B1-18 (antibody, V domains shown, humanized mAb) VH: EVQLQESGPGLVKPSETLSLTCTVSGFSLTSYNIHWVRQPPGKGLEWMGRIRYNGDTSYNSALKSRLTISRDTSKNQVSLKLSSVTAADTAVYYCTRGPYGGSREPLFDYWGQGTMVTVSS VL: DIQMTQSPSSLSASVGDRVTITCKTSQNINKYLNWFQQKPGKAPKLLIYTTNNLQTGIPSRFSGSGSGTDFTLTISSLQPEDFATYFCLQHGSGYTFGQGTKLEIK	7.90
Hu153A6B1-12 (antibody, V domains shown, humanized mAb) VH: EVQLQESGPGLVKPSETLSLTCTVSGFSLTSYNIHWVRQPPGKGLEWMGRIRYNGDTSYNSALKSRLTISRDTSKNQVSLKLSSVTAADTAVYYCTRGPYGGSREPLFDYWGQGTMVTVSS VL: DIQMTQSPSSLSASVGDRVTITCKTSQNINKYLNWFQQKPGKAPKLLIYTTNNLQTGIPSRFSGSGSGTDFTLTISSLQPEDFATYYCLQHGSGYTFGQGTKLEIK	7.87
